IC50: recorded values
Biological target: human acetyl-CoA carboxylase 2 (ACC2) (Homo sapiens, UniProt O00763)
Construct: The cDNA encoding amino acids 144 to 2458 of human acetyl-CoA carboxylase 2; made in house; host or cells: Sf9 insect cells (baculovirus, pFastBac1)
Sequence (O00763 144-2458): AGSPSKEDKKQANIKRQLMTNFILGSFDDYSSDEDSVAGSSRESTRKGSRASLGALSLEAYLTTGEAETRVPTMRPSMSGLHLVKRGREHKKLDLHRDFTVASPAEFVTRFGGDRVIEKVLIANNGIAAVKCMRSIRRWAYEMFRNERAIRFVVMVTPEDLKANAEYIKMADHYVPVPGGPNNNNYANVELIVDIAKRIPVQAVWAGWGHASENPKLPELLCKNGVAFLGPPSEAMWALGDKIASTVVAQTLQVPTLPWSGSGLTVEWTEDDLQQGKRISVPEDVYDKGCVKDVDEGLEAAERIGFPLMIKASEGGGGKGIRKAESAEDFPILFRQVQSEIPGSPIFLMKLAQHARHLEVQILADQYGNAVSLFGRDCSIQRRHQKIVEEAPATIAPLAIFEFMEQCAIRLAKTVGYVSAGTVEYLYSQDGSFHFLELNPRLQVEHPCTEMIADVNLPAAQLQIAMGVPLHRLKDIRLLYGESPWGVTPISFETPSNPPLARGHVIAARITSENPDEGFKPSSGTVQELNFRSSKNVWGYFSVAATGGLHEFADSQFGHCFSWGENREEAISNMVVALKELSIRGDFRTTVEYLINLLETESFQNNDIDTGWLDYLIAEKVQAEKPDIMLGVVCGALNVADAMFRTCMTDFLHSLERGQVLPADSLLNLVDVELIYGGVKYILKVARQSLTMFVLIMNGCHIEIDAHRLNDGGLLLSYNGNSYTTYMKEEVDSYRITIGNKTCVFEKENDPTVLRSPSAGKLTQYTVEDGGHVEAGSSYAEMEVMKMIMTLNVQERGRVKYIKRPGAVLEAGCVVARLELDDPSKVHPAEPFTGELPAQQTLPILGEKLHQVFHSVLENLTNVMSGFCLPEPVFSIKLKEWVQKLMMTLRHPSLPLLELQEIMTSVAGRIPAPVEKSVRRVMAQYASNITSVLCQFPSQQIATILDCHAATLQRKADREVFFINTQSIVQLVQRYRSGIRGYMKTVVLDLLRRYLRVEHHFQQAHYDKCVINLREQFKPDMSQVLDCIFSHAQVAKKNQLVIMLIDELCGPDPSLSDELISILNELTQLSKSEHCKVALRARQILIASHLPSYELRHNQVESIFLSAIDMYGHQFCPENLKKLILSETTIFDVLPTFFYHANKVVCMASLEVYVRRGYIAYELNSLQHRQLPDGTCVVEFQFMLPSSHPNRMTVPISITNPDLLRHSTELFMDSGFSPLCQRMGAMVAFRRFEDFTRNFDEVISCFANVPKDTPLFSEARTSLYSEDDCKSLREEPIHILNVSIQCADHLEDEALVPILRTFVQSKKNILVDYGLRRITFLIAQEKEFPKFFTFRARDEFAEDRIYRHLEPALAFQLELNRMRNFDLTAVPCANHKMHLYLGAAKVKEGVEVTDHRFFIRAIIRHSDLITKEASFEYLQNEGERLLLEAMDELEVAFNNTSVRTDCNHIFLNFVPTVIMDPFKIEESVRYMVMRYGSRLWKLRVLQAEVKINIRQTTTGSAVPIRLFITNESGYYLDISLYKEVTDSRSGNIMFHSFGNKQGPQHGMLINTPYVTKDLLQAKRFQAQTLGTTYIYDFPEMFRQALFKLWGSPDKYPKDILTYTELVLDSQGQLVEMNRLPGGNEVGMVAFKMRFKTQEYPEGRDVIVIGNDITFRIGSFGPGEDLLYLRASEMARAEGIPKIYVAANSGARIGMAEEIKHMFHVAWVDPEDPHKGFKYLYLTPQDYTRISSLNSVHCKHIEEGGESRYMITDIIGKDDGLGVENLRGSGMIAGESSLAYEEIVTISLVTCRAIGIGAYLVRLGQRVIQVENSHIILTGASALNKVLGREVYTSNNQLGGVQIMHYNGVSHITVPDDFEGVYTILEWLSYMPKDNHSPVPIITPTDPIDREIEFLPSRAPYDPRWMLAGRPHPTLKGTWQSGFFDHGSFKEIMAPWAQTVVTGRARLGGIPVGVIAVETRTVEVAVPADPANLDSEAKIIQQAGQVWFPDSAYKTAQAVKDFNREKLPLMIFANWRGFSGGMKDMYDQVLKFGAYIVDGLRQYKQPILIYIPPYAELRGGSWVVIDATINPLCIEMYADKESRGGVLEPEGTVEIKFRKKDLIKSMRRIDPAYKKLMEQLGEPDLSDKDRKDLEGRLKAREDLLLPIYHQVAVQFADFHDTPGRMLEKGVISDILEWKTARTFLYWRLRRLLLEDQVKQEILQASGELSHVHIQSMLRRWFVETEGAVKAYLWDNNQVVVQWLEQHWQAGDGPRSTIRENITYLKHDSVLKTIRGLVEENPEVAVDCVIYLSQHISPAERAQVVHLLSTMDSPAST
Assay: Acetyl-CoA carboxylase enzyme assay (malonyl-CoA formation by LC/MS/MS)
Type: biochemical
Settings: recombinant human ACC2 (aa 144-2458); read-out: IC50 ACC2
Use nM as the unit, but write only the number.

Worked cases, IC50 given:
| COMPOUND | IC50 (nM) |
| --- | --- |
| COC1CCN(C(=O)[C@H]2CC[C@H](NS(=O)(=O)c3ccc4[nH]c(-c5ccccc5)nc4c3)CC2)CC1 | 362 |
| CC(C)COC(=O)N1CCN(C(=O)OCC(C)C)c2cc(S(=O)(=O)N[C@H]3CC[C@H](C(=O)N[C@H](C)c4ccc(F)cc4)CC3)ccc21 | 365 |
| CC(C)(C)OC(=O)c1ccc(NS(=O)(=O)c2ccc3[nH]c(-c4ccccc4)nc3c2)cc1 | 1110 |
| CCC1(CC)CN(C(=O)[C@H]2CC[C@H](NS(=O)(=O)c3ccc4cc(-c5ccccc5)n(C)c4c3)CC2)CCO1 | 50 |
| C[C@@H](NC(=O)[C@H]1CC[C@H](NS(=O)(=O)c2ccc3nc(N4CCNCC4)ccc3c2)CC1)c1ccc(F)cc1 | 65 |

Query string: Which IC50 value belongs to CC(=O)N1CCc2cc(S(=O)(=O)N[C@H]3CC[C@H](C(=O)N[C@H](C)c4ccc(F)cc4)CC3)ccc21 ?
Result string: 388

Query string: Dear colleague, I am looking for the recorded IC50 of the following compound: CC(C)N(C)C(=O)[C@H]1CC[C@H](NS(=O)(=O)c2ccc3[nH]c(-c4ccc(N5CCN(C)CC5)cc4)nc3c2)CC1
Result string: 27

Query string: Given the compound CC[C@@H](NC(=O)[C@H]1CC[C@H](NS(=O)(=O)c2cnc3ccccc3c2)CC1)c1ccccc1 , what is its reported IC50?
Result string: 189

Query string: State the recorded IC50 for this entry: CC(=O)c1cccc(-c2nc3ccc(S(=O)(=O)Nc4ccc(C(=O)OC(C)C)cc4)cc3[nH]2)c1
Result string: 1890

Query string: Query (compound): Cn1c(-c2ccccc2)cc2cc(S(=O)(=O)N[C@H]3CC[C@H](C(=O)N4CC(C(=O)O)CCC4c4ccccc4)CC3)ccc21 (some centres unmarked) [Example 91] ; field requested: IC50
Result string: 30

Query string: For the compound Cc1cc(CO)ccc1-c1cc2ccc(S(=O)(=O)N[C@H]3CC[C@H](C(=O)N4CCNC(C(F)(F)F)C4)CC3)cc2n1C (some centres unmarked) , what IC50 is on record?
Result string: 515

Query string: Need IC50 of C[C@@H](NC(=O)[C@H]1CC[C@H](NC(=O)Nc2ccc3[nH]c(-c4ccccc4)nc3c2)CC1)c1ccc(F)cc1 , thanks.
Result string: 4640

Query string: Fill in the blank: the reported IC50 of CCOC(=O)Cc1nc2cc(S(=O)(=O)N[C@H]3CC[C@H](C(=O)N[C@H](C)c4ccc(F)cc4)CC3)ccc2[nH]1 is ____.
Result string: 615

###

# pIC50 per record follows
Target: human acetyl-CoA carboxylase 2 (ACC2) (Homo sapiens, UniProt O00763)
Construct: The cDNA encoding amino acids 144 to 2458 of human acetyl-CoA carboxylase 2; made in house; host or cells: Sf9 insect cells (baculovirus, pFastBac1)
Assay: Acetyl-CoA carboxylase enzyme assay (malonyl-CoA formation by LC/MS/MS)
Format: biochemical
Conditions: recombinant human ACC2 (aa 144-2458); read-out: IC50 ACC2
The scale used: pIC50 is minus the common logarithm of the concentration in molar units.

# annotated cases, reported pIC50 shown
| SUBSTANCE_SMILES | pIC50 |
| --- | --- |
| C[C@@H](NC(=O)[C@H]1CC[C@H](NS(=O)(=O)c2ccc3c(c2)N(C)CCC3)CC1)c1ccc(F)cc1 | 8.00 |
| CCOc1ccc2cc(S(=O)(=O)N[C@H]3CC[C@H](C(=O)N4CCN(C(=O)OC(C)(C)C)C[C@@H]4C(=O)OC)CC3)ccc2n1 | 7.02 |

Query string: I'd like to know its pIC50. The compound in question is C[C@@H](NC(=O)[C@H]1CC[C@H](NS(=O)(=O)c2cnc3c(c2)N(C(=O)OC2CCCCC2)CCN3)CC1)c1ccc(F)cc1
Result string: 6.65

Query string: Which pIC50 value belongs to Cn1c(-c2ccccc2)cc2cc(S(=O)(=O)N[C@H]3CC[C@H](C(=O)N4CCN[C@H](C(F)(F)F)C4)CC3)ccc21 ?
Result string: 7.12

Query string: Item under review: C[C@@H](NC(=O)[C@H]1CC[C@H](NS(=O)(=O)c2ccc3c(c2)NCCC3(C)C)CC1)c1ccc(F)cc1 . Reported pIC50?
Result string: 6.66

###

Target: human acetyl-CoA carboxylase 2 (ACC2) (Homo sapiens)
Construct: The cDNA encoding amino acids 144 to 2458 of human acetyl-CoA carboxylase 2; made in house; host or cells: Sf9 insect cells (baculovirus, pFastBac1)
Test: Acetyl-CoA carboxylase enzyme assay (malonyl-CoA formation by LC/MS/MS)
Assay type: biochemical
Conditions: recombinant human ACC2 (aa 144-2458); read-out: IC50 ACC2
ENDPOINT: IC50 (nM)
The reply should be a number in nM, with the unit left off.

| COMPOUND | TARGET | ENDPOINT | MEASUREMENT_UNITS | ASSAY_VALUE |
| --- | --- | --- | --- | --- |
| COCc1ccc(-c2cc3ccc(S(=O)(=O)N[C@H]4CC[C@H](C(=O)N5CCOC[C@@H]5C)CC4)cc3[nH]2)cc1 [Example 436] | human acetyl-CoA carboxylase 2 (ACC2) (Homo sapiens) | IC50 | nM | 20 |
| C[C@@H](NC(=O)[C@H]1CC[C@H](NS(=O)(=O)c2ccc3nc(Cl)ccc3c2)CC1)c1ccc(F)cc1 [Example 42] | human acetyl-CoA carboxylase 2 (ACC2) (Homo sapiens) | IC50 | nM | 94 |
| CC(=O)c1cccc(Nc2nc3cc(S(=O)(=O)Nc4ccc(C(=O)OC(C)C)cc4)ccc3[nH]2)c1 [Example 541] | human acetyl-CoA carboxylase 2 (ACC2) (Homo sapiens) | IC50 | nM | 86 |

Below: the item to evaluate.
Query string: Return reported IC50; argument: COc1ccc(-c2nc3ccc(S(=O)(=O)Nc4ccc(C(=O)OC(C)C)cc4)cc3[nH]2)cc1 [Example 497]
Result string: 762

###

This section presents compounds with their documented IC50 values.
Biological target: human acetyl-CoA carboxylase 2 (ACC2) (Homo sapiens, UniProt O00763)
Construct: The cDNA encoding amino acids 144 to 2458 of human acetyl-CoA carboxylase 2; made in house; host or cells: Sf9 insect cells (baculovirus, pFastBac1)
Assay: Acetyl-CoA carboxylase enzyme assay (malonyl-CoA formation by LC/MS/MS)
Type: biochemical
Conditions: recombinant human ACC2 (aa 144-2458); read-out: IC50 ACC2
Could you give me the number in nM? Just the number is fine.

| SUBSTANCE_SMILES | IC50 [nM] |
| --- | --- |
| COCCOc1ccc(-c2cc3ccc(S(=O)(=O)N[C@H]4CC[C@H](C(=O)N[C@H](C)C(F)(F)F)CC4)cc3n2C)cc1 | 165 |

Query string: Fill in: IC50 of CN1CCN(c2ccc(-c3nc4cc(S(=O)(=O)N[C@H]5CC[C@H](C(=O)N6CCOCC6)CC5)ccc4[nH]3)cc2)CC1 is ___
Result string: 55

###

Target: human acetyl-CoA carboxylase 2 (ACC2) (Homo sapiens)
Construct: The cDNA encoding amino acids 144 to 2458 of human acetyl-CoA carboxylase 2; made in house; host or cells: Sf9 insect cells (baculovirus, pFastBac1)
Assay: Acetyl-CoA carboxylase enzyme assay (malonyl-CoA formation by LC/MS/MS)
Type: biochemical
Conditions: recombinant human ACC2 (aa 144-2458); read-out: IC50 ACC2
ENDPOINT: IC50 (nM)
Value expressed in nM; do not type the unit.

| COMPOUND | IC50, nM |
| --- | --- |
| COC[C@H]1CCCN1C(=O)[C@H]1CC[C@H](NS(=O)(=O)c2ccc3cc(-c4ccccc4)n(C)c3c2)CC1 | 20 |

Now take the following compound into account.
Query string: Give human acetyl-CoA carboxylase 2 (ACC2) (Homo sapiens) IC50 for CC(C)OC(=O)c1ccc(NS(=O)(=O)c2ccc3[nH]c(Nc4cccc(F)c4F)nc3c2)cc1
Result string: 641

###

Target: human acetyl-CoA carboxylase 2 (ACC2) (Homo sapiens)
Construct: The cDNA encoding amino acids 144 to 2458 of human acetyl-CoA carboxylase 2; made in house; host or cells: Sf9 insect cells (baculovirus, pFastBac1)
Assay: Acetyl-CoA carboxylase enzyme assay (malonyl-CoA formation by LC/MS/MS)
Assay type: biochemical
Details: recombinant human ACC2 (aa 144-2458); read-out: IC50 ACC2
ENDPOINT: IC50 (nM)
Return type: number; implicit unit nM.

| SUBSTANCE_SMILES | MEASUREMENT_UNITS | IC50 |
| --- | --- | --- |
| C[C@H]1CCCCN1C(=O)[C@H]1CC[C@H](NS(=O)(=O)c2ccc3cc(-c4ccc(CCC(=O)O)cc4)n(C)c3c2)CC1 | nM | 20 |
| C[C@@H](NC(=O)[C@H]1CC[C@H](NS(=O)(=O)c2ccc3[nH]c([C@@H]4CNCCN4)nc3c2)CC1)c1ccc(F)cc1 | nM | 1260 |

// moving on: another record for IC50
Query string: GET /values?readout=IC50&item= Cc1ccccc1-c1cc2ccc(S(=O)(=O)N[C@H]3CC[C@H](C(=O)N4CCN[C@H](C(F)(F)F)C4)CC3)cc2[nH]1
Result string: 135

Ref: patent US8697739B2
